Measurement description: UV absorption spectral data (wavelength λmax, molar extinction ε, specific extinction E1^1)
Type: physicochemical
Measurement setup: Table 1
Measured quantity: Specific extinction E1^1
Respond numerically, and do not add a unit to the figure.

Example results:
Smi | Recorded number
CCOC(=O)C(=Cc1ccc(OC)cc1)C(C)=O | 770
COc1ccc(C=C(C#N)C(=O)N(CC(C)C)CC(C)C)cc1 | 510
CCOC(=O)C(=Cc1ccc(OC)c(OC)c1)C(=O)OCC | 670
CCOC(=O)C(=Cc1ccc(O)c(OC)c1)C(=O)OCC | 630
CCOC(=O)C(=Cc1cccc(O)c1)C(=O)OCC | 770

// recorded Specific extinction E1^1 for `COC(=O)C(C#N)=C(c1ccccc1)c1ccccc1` : 520

// recorded Specific extinction E1^1 for `COC(=O)C(C#N)=Cc1ccc(N(C)C)cc1` : 870

// recorded Specific extinction E1^1 for `COC(=O)C(C#N)=Cc1ccc(O)c(OC)c1` : 960

====

Measurement description: UV absorption spectral data (wavelength λmax, molar extinction ε, specific extinction E1^1)
Format: physicochemical
Measurement setup: Table II
Measured quantity: Wavelength λmax (nm)
Write the number in nm without appending the unit.

// recorded Wavelength λmax (nm) for `CCCCCCOC(=O)C(C#N)=Cc1ccc(OC)cc1` : 342

// recorded Wavelength λmax (nm) for O=C(c1ccc(O)cc1O)c1ccc(O)cc1O [(2), 2,2',4,4'-tetrahydroxybenzophenone] : 351

// recorded Wavelength λmax (nm) for `CCCCCOC(=O)C(C#N)=Cc1ccc(OC)cc1` : 341

// recorded Wavelength λmax (nm) for `CCCCCCCCCCCCOC(=O)C(C#N)=Cc1ccc(OC)cc1` : 342

// recorded Wavelength λmax (nm) for `CCCCCCCOC(=O)C(C#N)=Cc1ccc(OC)cc1` : 341

// recorded Wavelength λmax (nm) for `CCCCCCCCOC(=O)C(C#N)=Cc1ccc(OC)cc1` : 341

// recorded Wavelength λmax (nm) for `CCCCCCCCCOC(=O)C(C#N)=Cc1ccc(OC)cc1` : 341

// recorded Wavelength λmax (nm) for `CCCCOC(=O)C(C#N)=Cc1ccc(OC)cc1` : 342

// recorded Wavelength λmax (nm) for `COc1ccc(C(=O)c2cc(S(=O)(=O)O)c(OC)cc2O)c(O)c1` : 330

// recorded Wavelength λmax (nm) for `CCCCCCCCCCOC(=O)C(C#N)=Cc1ccc(OC)cc1` : 341

====

Measurement description: UV absorption spectral data (wavelength λmax, molar extinction ε, specific extinction E1^1)
Type: physicochemical
Measurement setup: Table 1
# if measured Specific extinction E1^1 < 800: 1 (yes)  # else: 0 (no)

Smi | Class
COC(=O)C(C#N)=Cc1ccc(OC)c(OC)c1 | 0 (no)
CN(C)c1ccc(C=C(C(N)=O)C(N)=O)cc1 | 0 (no)
COC(=O)C(C#N)=Cc1ccc(Cl)cc1 | 0 (no)
CCOC(=O)C(=Cc1ccc(O)c(OC)c1)C(C)=O | 1 (yes)
COC(=O)C(C#N)=Cc1ccccc1OC | 1 (yes)
COC(=O)C(C#N)=Cc1cccc(O)c1 | 0 (no)

Problem: Hello, is Specific extinction E1^1 of the following compound strictly smaller than 800? `COC(=O)C(C#N)=Cc1cccc(N)c1`
Solution: 0 (no)

Problem: Hello, is Specific extinction E1^1 of the following compound strictly smaller than 800? `COC(=O)C(C#N)=Cc1cccc(OC)c1`
Solution: 1 (yes)

Problem: Hello, is Specific extinction E1^1 of the following compound strictly smaller than 800? `COC(=O)C(C#N)=C(C)c1ccc(OC)cc1`
Solution: 1 (yes)

Problem: Hello, is Specific extinction E1^1 of the following compound strictly smaller than 800? `COc1ccc(C=C(C(=O)OCC(C)C)C(=O)OCC(C)C)cc1`
Solution: 1 (yes)

====

Measurement description: Solubilities at room temperature (20-25° C.) in groundnut oil and groundnut oil/liquid paraffin 1:9
Assay type: physicochemical
Measurement setup: groundnut oil/liquid paraffin 1:9
Reported Solubility at room temperature in groundnut oil/liquid paraffin 1:9 (%) by item:
Write the number in % without appending the unit.

Example results:
Smi | Recorded number
CCCCOC(=O)C(C#N)=Cc1ccc(OC)cc1 | 3
CCCCCCOC(=O)C(C#N)=Cc1ccc(OC)cc1 | 90
CCCCCCCCOC(=O)C(C#N)=Cc1ccc(OC)cc1 | 90
CCCCCCCCCOC(=O)C(C#N)=Cc1ccc(OC)cc1 | 10
CCCCCCCOC(=O)C(C#N)=Cc1ccc(OC)cc1 | 7

Please examine the following record next.
// recorded Solubility at room temperature in groundnut oil/liquid paraffin 1:9 (%) for `CCCCCOC(=O)C(C#N)=Cc1ccc(OC)cc1` : 1.4

====

Measurement description: UV absorption spectral data (wavelength λmax, molar extinction ε, specific extinction E1^1)
Assay type: physicochemical
Measurement setup: Table II; in M-1cm-1
Measured quantity: Molar extinction ε

Example results:
Compound | Molar extinction ε
CCCCCCCCCCOC(=O)C(C#N)=Cc1ccc(OC)cc1 [n-Decyl] | 27,700
COc1ccc(C(=O)c2cc(S(=O)(=O)O)c(OC)cc2O)c(O)c1 [(1)] | 5,920
CCCCCCCCOC(=O)C(C#N)=Cc1ccc(OC)cc1 [n-Octyl] | 30,500
CCCCCCOC(=O)C(C#N)=Cc1ccc(OC)cc1 [n-Hexyl] | 28,500

Please examine the following record next.
// recorded Molar extinction ε for CCCCCCCOC(=O)C(C#N)=Cc1ccc(OC)cc1 [n-Heptyl] : 28,300

====

Measurement description: UV absorption spectral data (wavelength λmax, molar extinction ε, specific extinction E1^1)
Format: physicochemical
Measurement setup: Table II; in M-1cm-1
Measured quantity: Molar extinction ε

Example results:
Compound | Result
CCCCCCCCCCCCOC(=O)C(C#N)=Cc1ccc(OC)cc1 | 28,450
CCCCCCCCCOC(=O)C(C#N)=Cc1ccc(OC)cc1 | 30,000
O=C(c1ccc(O)cc1O)c1ccc(O)cc1O [(2), 2,2',4,4'-tetrahydroxybenzophenone] | 15,900

// recorded Molar extinction ε for `CCCCCOC(=O)C(C#N)=Cc1ccc(OC)cc1` : 28,600

// recorded Molar extinction ε for `CCCCOC(=O)C(C#N)=Cc1ccc(OC)cc1` : 28,300

====

Reported Molar extinction ε by item:
Measurement description: UV absorption spectral data (wavelength λmax, molar extinction ε, specific extinction E1^1)
Format: physicochemical
Measurement setup: Table 1; in M-1cm-1

Example results:
Smi | Molar extinction ε
COC(=O)C(C#N)=Cc1ccc(O)cc1 | 27,300
COC(=O)C(C#N)=Cc1ccc(N(C)C)cc1 | 19,900
COC(=O)C(C#N)=Cc1cccc(O)c1 | 18,200
CCOC(=O)C(=Cc1ccc(O)c(OC)c1)C(C)=O | 18,200

Please examine the following record next.
// recorded Molar extinction ε for `COC(=O)C(C#N)=Cc1cccc(N)c1` : 16,800

====

Measurement description: UV absorption spectral data (wavelength λmax, molar extinction ε, specific extinction E1^1)
Assay type: physicochemical
Measurement setup: Table 1
Measured quantity: Specific extinction E1^1

Example results:
Smi | Specific extinction E1^1
COC(=O)C(C#N)=Cc1ccc(O)cc1 | 1,350
COC(=O)C(C#N)=Cc1ccco1 | 1,530

// recorded Specific extinction E1^1 for `C=C(C)C(=O)Oc1ccc(C=C(C#N)C(=O)OC)cc1` : 1,230

// recorded Specific extinction E1^1 for `COC(=O)C(C#N)=Cc1ccc(OC)cc1` : 1,350

====

Measurement description: UV absorption spectral data (wavelength λmax, molar extinction ε, specific extinction E1^1)
Type: physicochemical
Measurement setup: Table 1
Reported Specific extinction E1^1 by item:

// recorded Specific extinction E1^1 for `COC(=O)C(C#N)=Cc1ccc(C)cc1` : 1,230

// recorded Specific extinction E1^1 for `COc1ccc(C=C(C#N)C(N)=O)cc1` : 1,200

// recorded Specific extinction E1^1 for `COC(=O)C(=Cc1ccc(N(C)C)cc1)C(=O)OC` : 1,200

The origin of these recorded values is patent US4284621A.
